# EXPERIMENTAL SYSTEM: Hemagglutinin of influenza A/Solomon Islands/3/06 (H1N1), on inactivated whole virions (Influenza A virus A/Solomon …)
# EXPERIMENT DESCRIPTION: ELISA, B cell culture supernatant on inactivated whole virions
MEASURE: OD450 (OD450)

1. TCN-563 (5237_B21) (antibody, V domains shown) VH: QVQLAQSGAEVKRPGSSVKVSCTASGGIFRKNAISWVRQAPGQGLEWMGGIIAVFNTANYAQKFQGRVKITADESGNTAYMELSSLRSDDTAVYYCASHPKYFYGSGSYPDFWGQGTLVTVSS VL: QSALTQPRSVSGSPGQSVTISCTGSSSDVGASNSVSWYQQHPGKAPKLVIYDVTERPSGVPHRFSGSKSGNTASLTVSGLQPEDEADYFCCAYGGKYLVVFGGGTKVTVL : 3.62
2. TCN-526 (5084_C17) (antibody, V domains shown) VH: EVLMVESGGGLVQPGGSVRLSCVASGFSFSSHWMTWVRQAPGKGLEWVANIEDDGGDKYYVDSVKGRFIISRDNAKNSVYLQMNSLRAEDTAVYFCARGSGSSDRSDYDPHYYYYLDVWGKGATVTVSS VL: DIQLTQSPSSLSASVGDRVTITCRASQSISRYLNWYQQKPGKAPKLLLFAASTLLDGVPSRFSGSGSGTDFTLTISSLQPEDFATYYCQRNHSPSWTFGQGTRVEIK : 0.06
